The origin of these recorded values is the supplement of paper PMC6555819.

- Tested on: LXRb homodimer (NR concentration 270 nM)
- experimental-protocol: PBM binding z-score (relative to random genomic background probes); higher = stronger binding; sequences stand for … in GC…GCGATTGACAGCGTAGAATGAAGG
experimental-endpoint: PBM binding z-score

AGTCAAAGTTCACTAGGTAAGGTAAGATTCAGCT ... 1.19
AGAATCAGGTTAAGATCAGGGAAACAGAATACAT ... 0.474
TCTTGTAAATCAAGCAGGTTAAGAAAGCCTGAGT ... -0.289

====

- System: VDR homodimer (NR concentration 270 nM)
- experimental-protocol: PBM binding z-score (relative to random genomic background probes); higher = stronger binding; sequences stand for … in GC…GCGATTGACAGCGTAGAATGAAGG
Listed here: items and their measured PBM binding z-score.
experimental-endpoint: PBM binding z-score

ATCGAAAGGTCGACGTGGTGAGTATACACCGTTT ... 0.481
CCGAGTATGTTATGGGGCATTCAGGCAACGGTGA ... 0.00991
CGTCCAAGGTCATAGGAGGTTAGTGAAGACAGAT ... 2.99
TGTCAAATTTCAAAGGTAACGTAAGTATCCACAC ... -0.127
GCCATTAGTTGAAAGGGCAACCGAATGATTCTCG ... -0.125
AGAACGAGGGCACGCTGTGTTGATAGCAGAGTAG ... 0.651
